These entries and their values trace back to paper PMC9455983.

target: kappa-opioid receptor (KOR) (Cavia porcellus, UniProt P41144); construct: Guinea pig cortices and cerebella were homogenized using 50 mM Tris, pH 7.4; from tissue; host or cells: guinea pig cortex and cerebellum membranes; experiment: KOR radioligand competition binding assay ([3H]U69,593); set-up: species or system guinea pig; details: Kappa screening results, experiment 2; unit inferred; read-out: Ki (Exp 2)
pKi: −log10 of the molar value.
Parameter pKi: see the listing below.
measured_metric: pKi

1) Cc1cc(O)cc(C)c1C[C@H]1CNC(=N)N1C[C@H](CC(C)C)N1C[C@H](Cc2ccccc2)NC1=N	6.17
2) Cc1cc(O)cc(C)c1C[C@H]1CNC(=N)N1C[C@H](Cc1c(C)cc(O)cc1C)N1C[C@H](CC(C)C)NC1=N	5.83
3) CC(C)C[C@H]1CN([C@@H](Cc2ccccc2)CN2C(=N)NC[C@@H]2Cc2ccc(O)cc2)C(=N)N1	5.67
4) Cc1cc(O)cc(C)c1C[C@H]1CNC(=N)N1C[C@H](Cc1c(C)cc(O)cc1C)N1C[C@H](Cc2ccc(O)cc2)NC1=N	5.63
5) Cc1cc(O)cc(C)c1C[C@H]1CN([C@@H](Cc2ccc(O)cc2)CN2C(=N)NC[C@@H]2Cc2ccccc2)C(=N)N1	6.75
6) Cc1cc(O)cc(C)c1C[C@H]1CN([C@@H](CC(C)C)CN2C(=N)NC[C@@H]2Cc2c(C)cc(O)cc2C)C(=N)N1	6.37
7) N=C1NC[C@H](Cc2ccc(O)cc2)N1C[C@H](Cc1ccc(O)cc1)N1C[C@H](Cc2ccccc2)NC1=N	5.48
8) Cc1cc(O)cc(C)c1C[C@H]1CN([C@@H](Cc2ccccc2)CN2C(=N)NC[C@@H]2Cc2c(C)cc(O)cc2C)C(=N)N1	5.91
9) N=C1NC[C@H](Cc2ccccc2)N1C[C@H](Cc1ccc(O)cc1)N1C[C@H](Cc2ccccc2)NC1=N	5.43
10) Cc1cc(O)cc(C)c1C[C@@H](CN1C(=N)NC[C@@H]1Cc1ccc(O)cc1)N1C[C@H](Cc2ccc(O)cc2)NC1=N	5.75
11) Cc1cc(O)cc(C)c1C[C@H]1CN([C@@H](Cc2c(C)cc(O)cc2C)CN2C(=N)NC[C@@H]2Cc2ccc(O)cc2)C(=N)N1	5.83
12) Cc1cc(O)cc(C)c1C[C@H]1CN([C@@H](Cc2c(C)cc(O)cc2C)CN2C(=N)NC[C@@H]2C)C(=N)N1	6.62
13) Cc1cc(O)cc(C)c1C[C@@H](CN1C(=N)NC[C@@H]1Cc1ccccc1)N1C[C@H](Cc2ccccc2)NC1=N	5.95
14) C[C@H]1CNC(=N)N1C[C@H](Cc1ccccc1)N1C[C@H](Cc2ccc(O)cc2)NC1=N	5.04
15) CC(C)C[C@H]1CN([C@@H](Cc2ccccc2)CN2C(=N)NC[C@@H]2Cc2ccccc2)C(=N)N1	5.32
16) Cc1cc(O)cc(C)c1C[C@H]1CNC(=N)N1C[C@H](CC(C)C)N1C[C@H](Cc2ccc(O)cc2)NC1=N	6.11
17) CC(C)C[C@@H](CN1C(=N)NC[C@@H]1Cc1ccccc1)N1C[C@H](Cc2ccc(O)cc2)NC1=N	5.32
18) Cc1cc(O)cc(C)c1C[C@@H](CN1C(=N)NC[C@@H]1Cc1ccc(O)cc1)N1C[C@H](CC(C)C)NC1=N	5.68
19) CC(C)C[C@@H](CN1C(=N)NC[C@@H]1C)N1C[C@H](Cc2ccc(O)cc2)NC1=N	4.91
20) CC(C)C[C@H]1CN([C@@H](CC(C)C)CN2C(=N)NC[C@@H]2Cc2ccc(O)cc2)C(=N)N1	5.32
21) Cc1cc(O)cc(C)c1C[C@H]1CNC(=N)N1C[C@H](Cc1ccc(O)cc1)N1C[C@H](Cc2ccc(O)cc2)NC1=N	5.80
22) Cc1cc(O)cc(C)c1C[C@H]1CNC(=N)N1C[C@H](Cc1ccccc1)N1C[C@H](Cc2ccccc2)NC1=N	5.92
23) C[C@H]1CNC(=N)N1C[C@H](Cc1ccc(O)cc1)N1C[C@H](Cc2ccc(O)cc2)NC1=N	5.71
24) CC(C)C[C@@H](CN1C(=N)NC[C@@H]1Cc1ccc(O)cc1)N1C[C@H](Cc2ccc(O)cc2)NC1=N	4.88
25) CC(C)C[C@@H](CN1C(=N)NC[C@@H]1C)N1C[C@H](Cc2ccccc2)NC1=N	4.66
26) N=C1NC[C@H](Cc2ccccc2)N1C[C@H](Cc1ccccc1)N1C[C@H](Cc2ccc(O)cc2)NC1=N	5.25
27) N=C1NC[C@H](Cc2ccc(O)cc2)N1C[C@H](Cc1ccccc1)N1C[C@H](Cc2ccccc2)NC1=N	5.16
28) Cc1cc(O)cc(C)c1C[C@H]1CNC(=N)N1C[C@H](Cc1ccc(O)cc1)N1C[C@H](CC(C)C)NC1=N	6.41
29) CC(C)C[C@H]1CN([C@@H](Cc2ccc(O)cc2)CN2C(=N)NC[C@@H]2Cc2ccc(O)cc2)C(=N)N1	5.13
